Cited source for all entries: PubChem BioAssay (NCATS)

# ASSAY NOTES: qHTS for inhibitors of ER calcium dysfunction: SERCaMP assay screened against the NCATS CANVASS Library (AID 1347393); also: nearly all actives have a fitted effect of over 40% in size
# CONDITION DETAILS: SH-SY5Y GLuc-SERCaMP (Gaussia luciferase released on ER calcium loss) secretion, thapsigargin, luminescence; series mostly up to 76.6 µM
Records with an inconclusive call do not appear. Activity calls are given as the source filed them. Calls follow the shape of the dose curve; as a rule, active = well fitted inhibition curve with a large enough effect; inconclusive = small, poorly fitted or top-dose-only effect; inactive = no such curve, though single readings can be large or run the other way.
Log the outcome using a class from class 1 = active, class 0 = inactive

Answered cases to consult:
MOLECULE: C1=C2CCCN[C@H]2C2CC1[C@H]1CCCCN1C2 (some centres not stated)
LABEL CLASS: class 0
//
MOLECULE: C=C(C)[C@H]1C(=O)c2c3c(cc4c5c(n1c24)[C@@]1(C)[C@@H](CC[C@H]2[C@](C)(/C=C/C=C(\C)C(=O)O)[C@@H](O)CC[C@@]21C)C5)C1=CC(C)(C)OC(C)(C)[C@H]1[C@@H]3O
LABEL CLASS: class 0
//
MOLECULE: COC1C(O)C(C)OC(OC2C(Oc3cccc4c(O)c5c(=O)oc6ccc(C)c7c(=O)oc(c34)c5c67)OC(C)C(O)C2O)C1O (configuration not stated)
LABEL CLASS: class 0
//
MOLECULE: CO[C@@H](/C=C/CC/C=C/C(=O)O)[C@@H](O)[C@H](C)/C=C(\C)[C@H](O)[C@H](C)C(=O)CCCC1CC(=O)NC(=O)C1
LABEL CLASS: class 0
//
MOLECULE: CC[C@H]1CN2CCc3c([nH]c4cccc(OC)c34)[C@@H]2C[C@@H]1/C(=C\OC)C(=O)OC
LABEL CLASS: class 1

Q) Call for entry CC[C@@H]1CN2CCC3(Nc4cccc(OC)c4C3=O)[C@@H]2C[C@@H]1/C(=C\OC)C(=O)OC (some centres not stated) :
A) class 1

---

The following compounds are shown together with reported max response values.
# ASSAY NOTES: qHTS Assay for Lipid Storage Modulators (AID 1519)
# CONDITION DETAILS: Drosophila S3 cells, BODIPY lipid droplet/cell ratio, laser cytometry; measured here: lipid channel max response; cells loaded with oleic acid
Records with an inconclusive call do not appear.
Field format: number, assumed %, no unit text.

Some entries whose results are on file:
COMPOUND: CC1CC(O)[C@]2(O)[C@]13CC(=O)OC[C@@]2(C)[C@@](C)(O)C(=O)C3 (some centres undefined)
QUANTITY MEASURED: max response
RECORDED MEASUREMENT: 16.3

COMPOUND: CC(C)(C)[C@]1(O)C[C@@H]2OC(=O)C[C@@]23C(=O)O[C@@H]2OC(=O)[C@H](O)[C@]213
QUANTITY MEASURED: max response
RECORDED MEASUREMENT: 8.55

COMPOUND: C=C(C)c1cc2cc(C(C)=O)c(O)cc2o1
QUANTITY MEASURED: max response
RECORDED MEASUREMENT: 19.8

Please look at the following compound next.
Q) # max response lookup, item CCC(C)C(=O)OC1C(O)C2C(CN3CC(C)CCC3[C@]2(C)O)C2C[C@]34O[C@@]5(O)C(OC(=O)C(C)(O)CC)CCC3(C)C5C(OC(C)=O)C(OC(C)=O)C4[C@@]21O (some centres undefined)
A) 25.4

---

# ASSAY NOTES: A2780 Cisplatin Sensitive Ovarian Cancer Cell Toxicity qHTS against the NCATS CANVASS Library (AID 1347353); also: nearly all actives have a fitted effect of over 60% in size
# CONDITION DETAILS: A2780 ovarian cancer viability, ATPLite luminescence, 72 h; series mostly up to 46.1 µM
Records with an inconclusive call do not appear. The source made the active and inactive calls. Calls come from the whole dose curve; as a rule, active = well fitted cell-killing curve with a large enough effect; inconclusive = small, poorly fitted or top-dose-only effect; inactive = flat fitted curve, though single readings scatter. Starred links: 1 amine or outer side, 2 acyl side, 3 side chain; linkers in the order of their positions; H or OH if unused. Positions of bridges follow the written chain, without caps; N, C: chain ends. Non-standard residues stand in square brackets, D forms with d. Residues, ends and D or L forms follow the SMILES beside them. ξ: configuration not given here. *: point of attachment. X3 = C[C@@H](Oc1ccc([C@H](N[*:1])C(=O)[*:2])cc1)[C@]1(/C=C\C(=O)[*:3])CO1; d(aIle) = CC[C@H](C)[C@@H](N)C(=O)O; X2 = CC(C)[C@@H](O)C(C)C(=O)*; ξNMeF = CNC(Cc1ccccc1)C(=O)O; ξT = CC(O)C(N)C(=O)O; ξS = NC(CO)C(=O)O
Log the outcome using a class from True (active), False (inactive)

Answered cases to consult:
MOLECULE: COC1C(O)C(C)OC(OC2C(Oc3cccc4c(O)c5c(=O)oc6ccc(C)c7c(=O)oc(c34)c5c67)OC(C)C(O)C2O)C1O (stereo not given)
LABEL CLASS: True
//
MOLECULE: CC[C@@H]1CN2CCC3(Nc4cccc(OC)c4C3=O)[C@@H]2C[C@@H]1/C(=C\OC)C(=O)OC (stereo not given in full)
LABEL CLASS: False
//
MOLECULE: C/C=C1/CN2C3CC1C1=CCC(=O)N4c5ccccc5[C@@]3(C[C@@H]2C2=C[C@H]3C5CC6N(CC[C@@]67c6ccccc6N(C2=O)[C@@H]37)C/C5=C/C)[C@H]14 (stereo not given in full)
LABEL CLASS: True
//
MOLECULE: C[C@]12CC(O)C3[C@@H](CCC4C[C@@H](O)CC[C@@]43CO)[C@@]1(O)CC[C@@H]2C1=CC(=O)OC1 (stereo not given in full)
LABEL CLASS: True
//
MOLECULE: C=C[C@H]1CN2CCc3c([nH]c4cccc(OC)c34)[C@@H]2C[C@@H]1/C(=C\OC)C(=O)OC
LABEL CLASS: True
//
MOLECULE: CO[C@H]([C@@H](C)[C@H]1O[C@]1(C)C[C@H](C)/C=C/C=C(\C)[C@H]1O[C@@H](CC(=O)O)CC[C@@H]1C)[C@@H](C)O
LABEL CLASS: True
//
MOLECULE: C=CC(C)(C)[C@@]12C[C@H]3C(=O)N/C(=C\c4cnc[nH]4)C(=O)N3[C@@H]1Nc1ccccc12
LABEL CLASS: False
//
MOLECULE: COC1=C(C2=C(OC)C(=O)c3cc4c(c(O)c3C2=O)C(=O)O[C@H](C)C4)C(=O)c2c(cc3c(c2O)C(=O)O[C@H](C)C3)C1=O
LABEL CLASS: True

Q) Call for entry CO[C@H]1C[C@H](O[C@H]2[C@@H](O)C[C@H](O[C@H]3CC[C@]4(C=O)[C@H]5CC[C@]6(C)C(C7=CC(=O)OC7)CC[C@]6(O)[C@@H]5CC[C@]4(O)C3)O[C@@H]2C)O[C@H](C)[C@H]1O[C@H]1C[C@@H](OC)[C@@H](O[C@@H]2O[C@H](CO)[C@@H](O)[C@H](O)[C@H]2O)[C@@H](C)O1 (stereo not given in full) :
A) True

Q) Likewise for `C/C=C1/CN2CC[C@@]34c5ccccc5N(C)[C@@H]3[C@@H]2C[C@@H]1[C@H]4C(=O)OC` ?
A) False

Q) Likewise for C1=C2CCCN[C@H]2C2CC1[C@H]1CCCCN1C2 (stereo not given in full) ?
A) False

Q) Likewise for `CO[C@H]1[C@H](O[C@H]2CC[C@]3(C=O)[C@H]4CC[C@]5(C)[C@@H](C6=CC(=O)OC6)CC[C@]5(O)[C@@H]4CC[C@]3(O)C2)O[C@H](C)[C@H](O)[C@@H]1OC` ?
A) True

Q) Likewise for `CC[C@]12C=CCN3CC[C@]4(C(=C(C(=O)OC)C1)Nc1ccccc14)[C@@H]32` ?
A) False

Q) Likewise for `C=C(C)[C@H]1C(=O)c2c3c(cc4c5c(n1c24)[C@@]1(C)[C@@H](CC[C@H]2[C@](C)(/C=C/C=C(\C)C(=O)O)[C@@H](O)CC[C@@]21C)C5)C1=CC(C)(C)OC(C)(C)[C@H]1[C@@H]3O` ?
A) True

Q) Likewise for C[C@]12CCC3[C@@H](CC[C@@H]4C[C@@H](O)CC[C@]34CO)[C@@]1(O)CC[C@@H]2C1=CC(=O)OC1 (stereo not given in full) ?
A) True

Q) Likewise for `O[C@H]1C=C[C@@]23CCN(Cc4cc5c(cc42)OCO5)[C@@H]3C1` ?
A) False

Q) Likewise for `C=C[C@]12C=CCN3CC[C@@]4(c5ccccc5NC(=O)[C@@H]4C1)[C@@H]32` ?
A) False

Q) Likewise for `CCCC[C@@H](C)/C=C1/CN2CCC[C@H]2[C@@](C)(O)[C@@H]1O` ?
A) False

Q) Likewise for CC[C@H](C)[C@H]1NC(=O)[C@@H](NC(=O)C(C)[C@H](O)C(C)C)[C@@H](C)OC(=O)C2COC(=O)CNC(=O)/C=C\[C@]3(CO3)[C@@H](C)Oc3ccc(cc3)[C@H](NC1=O)C(=O)N(C)C(Cc1ccccc1)C(=O)NC(C(C)O)C(=O)N2 (stereo not given in full) (X2-T[d(aIle)][X3][ξNMeF][ξT][ξS]; ester 1-C; linker 3-6 via G) ?
A) False

Q) Likewise for `C/C(=C\[C@H](C)C(=O)C[C@H](O)CC1CC(=O)NC(=O)C1)[C@@H]1OC(=O)/C=C/CC/C=C/C=C/[C@@H]1C` ?
A) True
